From: PubChem BioAssay AID652067

system: DAF-12 nuclear receptor (Haemonchus contortus); test: hcDAF-12 driven luciferase reporter activation – cell-based, luminescence, HEK293, lit1-tk-luc reporter, primary screen (AID 652067); conditions: HEK293 hcDAF-12 lit1-tk-luc reporter, at 6.8 µM, hits give high values, 0% DMSO, 100% Δ7-dafachronic acid;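 also: 100% = response to 3 µM Δ7-dafachronic acid high control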
Out of some 370,000 compounds screened, about 5,400 (1.5%) were called active. The list comes from a sample in which actives are over-represented; it also holds close analogues and randomly drawn compounds.
Result type: activation

Note to self: activation recorded for CN1CCOC1c1ccc(C2OCCN2C)cc1 (stereo not given) was -0.23% (inactive)

Note to self: activation recorded for N[C@@H](Cc1ccccc1)C(=O)N1CCC(C(=O)NCC(=O)Nc2ccc(F)cc2)CC1 was 8.85% (active)

Note to self: activation recorded for O=C(COc1cccc2c1CCNC2=O)NC1CCCCC1 was 0.88% (inactive)

Note to self: activation recorded for CC(=O)c1c(Nc2ccccc2)sc(C(=O)c2ccccc2)c1C was -2.59% (inactive)

Note to self: activation recorded for CCCOC(=O)Cc1c(O)c2ccccc2[nH]c1=O was 0.81% (inactive)
